- PROCEDURE_SUMMARY: Fluorescence titration of peptide in solution with MG, 2 mM Ca2+, 650 nm
- Assay type: binding
- PROTOCOL_CONDITIONS: binding to MG; read-out: binding affinity
MEASURED_ENDPOINT: Kd (nM)
The reply should contain only the number, in nM.

Form field: reported Kd of DWWDWGNHGYTE [Peptide 12]
0.41

====

- PROCEDURE_SUMMARY: MG binding of peptide ligands from screening and their derivatives
- Design: key: −: no binding; +: weak binding; ++: mild binding; +++: strong binding; ++++: very strong binding
- PROTOCOL_CONDITIONS: 11 hour incubation with 5 μM MG in PBS buffer (pH 7.4)
Bridges are numbered along the chain shown (N, C = ends). Where no end group is shown, it is not given here. [ ]: non-standard residue; d: D form. pY = N[C@@H](Cc1ccc(OP(=O)(O)O)cc1)C(=O)O
MEASURED_ENDPOINT: MG binding

Some solved cases for reference:
INSERT INTO assay_data (substance, recorded_value) VALUES
  ('DWWWDGFERLEE (synthetic genetically encoded small illuminant (GESI) malachite green (MG) binding Peptide 2)', '++'),
  ('3C (CDNYI[pY]GSFKNPWEWC; disulfide 1-16 (inferred)) [Peptide 3C]', '++++'),
  ('DFMRQGVYDIPE (synthetic genetically encoded small illuminant (GESI) malachite green (MG) binding Peptide 5)', '++'),
  ('5C (CDTYI[pY]GSFKVNPDC; disulfide 1-15 (inferred)) [Peptide 5C]', '+++'),
  ('4C (CDVYI[pY]GSFKYWPAC; disulfide 1-15 (inferred)) [Peptide 4C]', '++++'),
  ('1C (CDDYI[pY]GSFKPYIAC; disulfide 1-15 (inferred)) [Peptide 1C]', '++++');

Now consider a different substance.
Form field: reported MG binding of 3-P (DNYIYGSFKPWEWC; synthetic genetically encoded small illuminant (GESI) malachite green (MG) binding peptide 3-P from linear library L-1)
++
